Biological target: endogenous (mouse) LRRK2 (Mus musculus, UniProt Q5S006)
Sequence (Q5S006 whole entry): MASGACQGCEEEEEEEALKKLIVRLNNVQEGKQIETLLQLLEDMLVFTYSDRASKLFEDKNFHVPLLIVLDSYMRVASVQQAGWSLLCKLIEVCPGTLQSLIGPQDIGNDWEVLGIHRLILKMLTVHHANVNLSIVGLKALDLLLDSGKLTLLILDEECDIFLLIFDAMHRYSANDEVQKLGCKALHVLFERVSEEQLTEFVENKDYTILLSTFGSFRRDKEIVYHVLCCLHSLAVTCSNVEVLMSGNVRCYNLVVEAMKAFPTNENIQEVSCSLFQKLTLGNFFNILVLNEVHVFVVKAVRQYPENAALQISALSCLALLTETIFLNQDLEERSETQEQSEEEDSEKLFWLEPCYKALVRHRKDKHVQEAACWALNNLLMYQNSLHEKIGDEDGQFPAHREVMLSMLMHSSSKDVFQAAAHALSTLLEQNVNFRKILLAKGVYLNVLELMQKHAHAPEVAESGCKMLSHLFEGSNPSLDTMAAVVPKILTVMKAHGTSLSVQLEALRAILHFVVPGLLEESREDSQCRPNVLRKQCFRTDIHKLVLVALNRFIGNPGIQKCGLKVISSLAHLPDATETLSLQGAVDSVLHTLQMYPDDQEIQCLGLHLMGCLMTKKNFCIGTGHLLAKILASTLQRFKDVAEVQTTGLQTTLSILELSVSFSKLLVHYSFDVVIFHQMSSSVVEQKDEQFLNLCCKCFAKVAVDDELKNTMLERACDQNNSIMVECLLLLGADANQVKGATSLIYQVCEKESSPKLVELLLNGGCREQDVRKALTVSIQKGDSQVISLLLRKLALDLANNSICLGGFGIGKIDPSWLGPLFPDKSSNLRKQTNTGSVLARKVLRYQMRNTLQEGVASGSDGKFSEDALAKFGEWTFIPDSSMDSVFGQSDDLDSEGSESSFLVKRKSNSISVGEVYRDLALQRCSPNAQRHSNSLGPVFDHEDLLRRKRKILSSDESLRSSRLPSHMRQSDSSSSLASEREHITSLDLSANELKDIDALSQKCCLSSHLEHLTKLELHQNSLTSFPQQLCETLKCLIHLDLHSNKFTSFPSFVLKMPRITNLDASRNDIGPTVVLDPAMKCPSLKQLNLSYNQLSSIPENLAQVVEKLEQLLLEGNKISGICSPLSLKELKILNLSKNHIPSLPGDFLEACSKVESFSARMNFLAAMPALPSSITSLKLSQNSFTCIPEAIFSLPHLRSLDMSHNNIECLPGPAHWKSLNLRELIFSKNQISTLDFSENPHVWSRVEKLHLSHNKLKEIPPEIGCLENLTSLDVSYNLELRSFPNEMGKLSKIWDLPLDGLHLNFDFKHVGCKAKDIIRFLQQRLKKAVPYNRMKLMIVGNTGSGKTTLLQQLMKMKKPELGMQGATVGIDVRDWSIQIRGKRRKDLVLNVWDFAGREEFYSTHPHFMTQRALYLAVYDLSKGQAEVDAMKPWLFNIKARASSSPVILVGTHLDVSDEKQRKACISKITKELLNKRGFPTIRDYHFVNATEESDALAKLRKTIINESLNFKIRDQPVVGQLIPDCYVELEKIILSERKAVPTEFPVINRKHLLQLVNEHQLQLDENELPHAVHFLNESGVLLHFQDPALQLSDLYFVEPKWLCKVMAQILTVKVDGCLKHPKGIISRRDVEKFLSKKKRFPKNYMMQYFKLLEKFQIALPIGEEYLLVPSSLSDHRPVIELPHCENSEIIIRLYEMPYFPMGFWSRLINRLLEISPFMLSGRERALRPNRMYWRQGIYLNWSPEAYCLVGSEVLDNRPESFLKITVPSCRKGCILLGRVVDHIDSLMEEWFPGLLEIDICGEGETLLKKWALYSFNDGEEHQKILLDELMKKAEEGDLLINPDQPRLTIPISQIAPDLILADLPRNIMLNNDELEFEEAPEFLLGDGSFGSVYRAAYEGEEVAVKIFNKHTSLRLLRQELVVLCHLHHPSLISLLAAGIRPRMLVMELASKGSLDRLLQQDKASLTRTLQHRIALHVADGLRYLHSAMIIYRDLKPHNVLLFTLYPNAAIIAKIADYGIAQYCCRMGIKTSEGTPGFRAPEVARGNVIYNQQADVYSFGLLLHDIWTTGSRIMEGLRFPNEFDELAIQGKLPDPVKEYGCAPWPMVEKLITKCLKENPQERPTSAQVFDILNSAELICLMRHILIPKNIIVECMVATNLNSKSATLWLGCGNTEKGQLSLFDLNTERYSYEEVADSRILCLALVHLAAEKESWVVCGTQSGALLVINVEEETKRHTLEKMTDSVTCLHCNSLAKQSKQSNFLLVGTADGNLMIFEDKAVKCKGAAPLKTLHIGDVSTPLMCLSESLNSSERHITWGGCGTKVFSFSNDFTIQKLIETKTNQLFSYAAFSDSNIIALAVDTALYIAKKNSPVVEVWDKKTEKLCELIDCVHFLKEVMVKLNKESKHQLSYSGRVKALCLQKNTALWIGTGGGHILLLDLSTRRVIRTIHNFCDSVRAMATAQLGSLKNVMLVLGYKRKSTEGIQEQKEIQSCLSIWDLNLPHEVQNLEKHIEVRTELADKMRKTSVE
Test: pull-down

>  <binder>
Nb36 (VHH) VHH: QVQLVESGGGLVQPGGSLRLSCAASGSIRSITTSAWFRQPPGKQRELVAGISSGTSTNYADSVKGRFTISRDNAKNTVYLQMNSLKPEDTAVYYCHVWISGTWYSGQGTQVTVSS

>  <binding result>
binds

$$$$
>  <binder>
Nb42 (VHH) VHH: QVQLVESGGGLVQAGGSLRLSCAASGDVNYAVGWFRQAPRKEREFVAAINWRGDNTDYTDSVKGRFTISRDNAKNTVYLQMNSLKPEDTAVYYCAAKSAPYWYSDIAPDYWGQGTQVTVSS

>  <binding result>
binds

$$$$

Attribution: paper PMC8892280
